Reported pIC50 by item:
Target: Membrane-associated tyrosine- and threonine-specific cdc2-inhibitory kinase (Homo sapiens)
Sequence (Q99640 whole entry): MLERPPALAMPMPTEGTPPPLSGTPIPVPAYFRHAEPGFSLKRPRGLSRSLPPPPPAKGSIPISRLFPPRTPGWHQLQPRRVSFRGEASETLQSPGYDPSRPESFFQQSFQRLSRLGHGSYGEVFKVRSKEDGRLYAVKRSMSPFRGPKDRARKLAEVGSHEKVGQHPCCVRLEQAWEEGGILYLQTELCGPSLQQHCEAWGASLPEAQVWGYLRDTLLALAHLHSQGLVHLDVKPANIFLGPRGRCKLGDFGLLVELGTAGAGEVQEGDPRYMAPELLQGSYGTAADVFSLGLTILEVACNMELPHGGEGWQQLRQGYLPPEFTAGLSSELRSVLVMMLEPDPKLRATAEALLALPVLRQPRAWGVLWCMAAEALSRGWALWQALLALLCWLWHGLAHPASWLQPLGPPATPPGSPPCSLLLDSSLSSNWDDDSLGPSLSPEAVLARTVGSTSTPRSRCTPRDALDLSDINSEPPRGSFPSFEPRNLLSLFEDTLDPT
Test: Inhibition of PKMYT1 (unknown origin) by TR-FRET analysis
pIC50: −log10 of the molar value.

>  <Smiles Representation>
Cc1cc(Nc2ncc3cc(-c4c(Cl)cccc4Cl)c(=O)n(C)c3n2)ccc1F

>  <Rel>
=

>  <pIC50>
8.14

$$$$
>  <Smiles Representation>
Cc1ccc(O)c(C)c1-n1c(N)c(C(N)=O)c2c(=O)n(CF)ccc21

>  <Rel>
=

>  <pIC50>
8.82

$$$$
>  <Smiles Representation>
Cc1ccc(O)c(C)c1-n1c(N)c2c3c(c(C)ncc31)CCNC2=O

>  <Rel>
=

>  <pIC50>
8.00

$$$$
>  <Smiles Representation>
Cc1nc2c3c(c(N)n(-c4c(C)ccc(O)c4C)c3n1)C(=O)NCC2

>  <Rel>
≥

>  <pIC50>
8.00

$$$$
>  <Smiles Representation>
Cc1ccc(O)c(C)c1-n1c(N)c2c3c(c(C)cnc31)CCNC2=O

>  <Rel>
≥

>  <pIC50>
8.00

$$$$
